Data provenance is patent US11655235B2.

Molecular target: Recombinant human FAP (Homo sapiens, UniProt Q12884)
Construct: purchased R&D systems
Sequence (Q12884 whole entry): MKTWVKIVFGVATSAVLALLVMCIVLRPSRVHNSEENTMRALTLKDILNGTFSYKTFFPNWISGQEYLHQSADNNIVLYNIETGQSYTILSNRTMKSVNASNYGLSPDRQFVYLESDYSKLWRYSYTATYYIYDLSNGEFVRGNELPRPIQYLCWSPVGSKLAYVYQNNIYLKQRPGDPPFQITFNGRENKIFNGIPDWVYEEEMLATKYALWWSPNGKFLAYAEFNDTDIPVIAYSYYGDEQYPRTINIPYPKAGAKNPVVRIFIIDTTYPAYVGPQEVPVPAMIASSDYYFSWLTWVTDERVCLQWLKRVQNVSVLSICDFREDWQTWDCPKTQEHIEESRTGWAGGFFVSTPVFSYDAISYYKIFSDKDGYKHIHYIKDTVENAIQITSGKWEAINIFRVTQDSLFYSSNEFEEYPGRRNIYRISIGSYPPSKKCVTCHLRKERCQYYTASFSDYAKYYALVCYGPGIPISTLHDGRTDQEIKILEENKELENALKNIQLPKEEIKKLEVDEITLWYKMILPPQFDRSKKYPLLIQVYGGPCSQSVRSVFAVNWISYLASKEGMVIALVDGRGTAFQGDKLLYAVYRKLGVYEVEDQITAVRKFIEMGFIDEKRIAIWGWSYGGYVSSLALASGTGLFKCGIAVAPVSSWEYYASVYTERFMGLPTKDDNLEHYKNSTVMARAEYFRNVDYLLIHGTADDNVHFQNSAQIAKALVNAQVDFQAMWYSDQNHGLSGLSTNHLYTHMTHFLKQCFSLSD
Test: FAP inhibition, fluorogenic substrate Z-Gly-Pro-AMC
Assay type: biochemical
Settings: recombinant human FAP, substrate Z-Gly-Pro-AMC
outcome measure: IC50
Reply with a number, then the unit it belongs to.

1. COc1cc2nc(Cl)nc(NC3CCN(CC(=O)N4CCC[C@H]4C#N)CC3)c2cc1OC	3.7 nM
2. N#C[C@@H]1C[C@H](F)CN1C(=O)CN1CCC(Nc2ccc(Cl)c3cnccc23)CC1	4.5 nM
3. COc1cnc2cccc(N[C@H]3CCN(CC(=O)N4C[C@@H](F)C[C@H]4C#N)C3)c2c1	2.1 nM
4. N#C[C@@H]1C[C@H](F)CN1C(=O)CN1CC[C@@H](Nc2ccnc3ccccc23)C1	3.5 nM

Give IC50 for each listed item.
1. N#C[C@@H]1CCCN1C(=O)CN1CC[C@H](Nc2cccc3ncc(Cl)cc23)C1
2. N#C[C@@H]1C[C@H](F)CN1C(=O)CN1CCC(Oc2ccc(Cl)c3ncccc23)CC1
3. N#Cc1ccc2c(N[C@H]3CCN(CC(=O)N4C[C@@H](F)C[C@H]4C#N)C3)cccc2n1
4. N#Cc1ccc2c(NC3CCN(CC(=O)N4C[C@@H](F)C[C@H]4C#N)CC3)cccc2n1
5. N#C[C@@H]1C[C@H](F)CN1C(=O)CN1CCC(Nc2ccc(C(F)(F)F)c3ncccc23)CC1
6. Cc1cccc2c(NC3CCN(CC(=O)N4CCC[C@H]4C#N)CC3)nc(Cl)nc12

*A*
["0.7 nM", "3.7 nM", "0.8 nM", "5.9 nM", "4 nM", "2.3 nM"]

Give IC50 for each listed item.
1. N#C[C@@H]1C[C@H](F)CN1C(=O)CN1CCC(Oc2ccc3cnccc3c2)CC1
2. N#C[C@@H]1C[C@H](F)CN1C(=O)CN1CCC(Nc2cncc3ccccc23)CC1

*A*
11.4 nM
11.4 nM

Give IC50 for each listed item.
1. N#C[C@@H]1CCCN1C(=O)CN1CC[C@@H](Nc2cccc3cccnc23)C1
2. N#C[C@@H]1C[C@H](F)CN1C(=O)CN1CC[C@H](Nc2ccc3cccnc3c2)C1
3. N#C[C@@H]1C[C@H](F)CN1C(=O)CN1CC[C@H](Nc2cnc3ccccc3c2)C1
4. COc1cnc2cccc(N[C@H]3CCN(CC(=O)N4CCC[C@H]4C#N)C3)c2c1
5. N#C[C@@H]1C[C@H](F)CN1C(=O)CN1CCC(Oc2cc(C(F)(F)F)nc3ccccc23)CC1
6. N#C[C@@H]1CCCN1C(=O)CN1CC[C@H](Nc2cc(C(F)(F)F)cc3ncccc23)C1
7. CN(c1cc2ccccc2cn1)C1CCN(CC(=O)N2CCC[C@H]2C#N)CC1

*A*
1: 56.8 nM; 2: 3.1 nM; 3: 6 nM; 4: 0.7 nM; 5: 5.9 nM; 6: 1.4 nM; 7: 8.8 nM
